meta.source: patent US12371400B2

Target chain: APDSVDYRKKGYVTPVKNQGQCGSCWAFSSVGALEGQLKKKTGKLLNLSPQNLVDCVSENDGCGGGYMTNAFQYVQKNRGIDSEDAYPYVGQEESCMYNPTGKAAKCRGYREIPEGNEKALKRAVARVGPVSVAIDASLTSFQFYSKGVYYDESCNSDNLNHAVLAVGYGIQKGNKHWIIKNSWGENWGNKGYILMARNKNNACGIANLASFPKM
observed-property: IC50 (nM)

A: CC(C)C[C@H](NC(=O)[C@H]1O[C@@H]1C(=O)O)C(=O)NCCCCN=C(N)N [Compound E-64, reference compound]
B: CC(C)(F)C[C@H](N[C@@H](c1ccc(-c2ccc(S(C)(=O)=O)cc2)cc1)C(F)(F)F)C(=O)NC1(C#N)CC1 [ODN, reference compound]
C: C#CC(C)NC(=O)[C@H](CC(C)(C)F)N[C@@H](c1ccc(-c2ccc(S(C)(=O)=O)cc2)cc1)C(F)(F)F (mixture of isomers) [Compound 5]
Hey, can you sort those compounds up there by IC50, smallest first? Your task in answering is to list the labels in the requested order.
B, A, C
(B: 0.56 nM, A: 1.9 nM, C: 346 nM)
